# tgt: T1, Human Glypican3-Fc (ACRO Biosystems, GP3-H5258) (human, UniProt P51654 25-559)
# T1 construct: Bought fusion protein, captured in Methods B-2, B-3 and B-4; Catalogue number is printed only in Method B-2; not shown: Fc part of the bought fusion
# procedureDetails: SPR (Biacore T200), Method B-3: Glypican3-Fc captured on Protein A chip, peptide as analyte
Starred links: 1 amine or outer side, 2 acyl side, 3 side chain; linkers in the order of their positions; H or OH if unused. Positions of bridges follow the written chain, without caps; N, C: chain ends. Non-standard residues stand in square brackets, D forms with d. Primed or numbered codes have the meaning given here. *: point of attachment. MeDapCOpipzaa = 3-(4-(carboxymethyl)piperazine-1-carboxamido)-2-(methylamino)propanoic acid, CN([C@@H](CNC(=O)N1CCN(CC(=O)[*:3])CC1)C(=O)[*:2])[*:1]; MeKCOpipzaa = N-alpha-methyl-N6-[4-(carboxymethyl)piperazine-1-carbonyl]-L-lysine, CN([C@@H](CCCCNC(=O)N1CCN(CC(=O)[*:3])CC1)C(=O)[*:2])[*:1]; DOTA‑Lu = DOTA-lutetium(175) amide on the side-chain amine, O=C([O-])CN1CCN(CC(=O)[O-])CCN(CC(=O)*)CCN(CC(=O)[O-])CC1.[175Lu+3]; F4aao = 4-(carboxymethoxy)-L-phenylalanine, O=C([C@H](Cc1ccc(OCC(=O)[*:3])cc1)N[*:1])[*:2]; F4aao(4) = 4-(carboxymethoxy)phenylalanine, O=C([C@H](Cc1ccc(OCC(=O)[*:3])cc1)N[*:1])[*:2]; MeHseMe = N-methyl-O-methyl-L-homoserine, COCC[C@@H](C(=O)[*:2])N(C)[*:1]; Thr(Me)″ = TMe = O-methyl-L-threonine, CO[C@H](C)[C@H](N[*:1])C(=O)[*:2]; TMe = O-methyl-L-threonine, CO[C@H](C)[C@H](N[*:1])C(=O)[*:2]; NMeAla(isoquinolin-7-yl) = CN[C@@H](Cc1ccc2ccncc2c1)C(=O)O; 3Pal(6-Ph) = N[C@@H](Cc1ccc(-c2ccccc2)nc1)C(=O)O; Phe(4-COOH) = N[C@@H](Cc1ccc(C(=O)O)cc1)C(=O)O; NMe2Nal = CN[C@@H](Cc1ccc2ccccc2c1)C(=O)O; NMeY = CN[C@@H](Cc1ccc(O)cc1)C(=O)O; NMeI = CC[C@H](C)[C@H](NC)C(=O)O; NMeQ = CN[C@@H](CCC(N)=O)C(=O)O; NMeK = CN[C@@H](CCCCN)C(=O)O; NMeC = CN[C@@H](CS)C(=O)O; NMeA = CN[C@@H](C)C(=O)O
As shown below, each of these binders has a reported Kd value.
Your answer should be a plain number; it is taken to be in nM.

Answered cases to consult:
binder | Kd / nM
{CH2CO}-[NMeK][MeKCOpipzaa]D[MeDapCOpipzaa][Phe(4-COOH)][Thr(Me)″]I[F4aao][NMeAla(isoquinolin-7-yl)]G[3Pal(6-Ph)][NMeC]-NH2 (thioether N-12) [Macrocyclic peptide of Example 2-29 (SEQ ID No. 46)] | 1
{CH2CO}-K[MeHseMe]D[NMeQ][Phe(4-COOH)][TMe]IY[NMeAla(isoquinolin-7-yl)]G[3Pal(6-Ph)][NMeC]-NH2 (thioether N-12; not fully specified (residue 1); printed as MeK-MeHseMe-D-MeQ-F4COO-TMe-I-Y-MeNal27N-G-3Py6Ph-MeC-NH2, SulfoCy5 conjugate) [PLD-45] | 0.88
Ac-[NMeK](DOTA‑Lu)[NMeI]D[NMeQ][Phe(4-COOH)]II[F4aao(4)][NMeAla(isoquinolin-7-yl)]G[3Pal(6-Ph)][NMeC]-NH2 (bridge N-12; not fully specified (bridges); also: DOTA-Lu: cold Lu-175 complex) [Lu-C-64] | 0.53

Consider the record given below.
Let me know recorded Kd for {CH2CO}-[NMeA][NMeY]DY[TMe]IY[NMe2Nal]G[3Pal(6-Ph)][NMeC]-NH2 (thioether N-11; SMILES CC[C@H](C)[C@@H]1NC(=O)[C@H]([C@@H](C)OC)NC(=O)[C@H](Cc2ccc(O)cc2)NC(=O)[C@H](CC(=O)O)NC(=O)[C@H](Cc2ccc(O)cc2)N(C)C(=O)[C@H](C)N(C)C(=O)CSC[C@@H](C(N)=O)N(C)C(=O)[C@H](Cc2ccc(-c3ccccc3)nc2)NC(=O)CNC(=O)[C@H](Cc2ccc3ccccc3c2)N(C)C(=O)[C@H](Cc2ccc(O)cc2)NC1=O, 11 residues) [Macrocyclic peptide of Example 2-40 (SEQ ID No. 66)] , thanks.
21.5
